assay: solvent given as SMILES
study conditions: in CCCO
Classes by solvation free energy, 298 K: lower segment (below -10 kcal/mol), middle segment (-10 kcal/mol to below -8 kcal/mol), upper segment (-8 kcal/mol or more)

>  <structure string>
C1CCCCC1

>  <class label>
upper segment

$$$$

Prompt: Which class is correct for the following compound? `O=C(O)c1cccc(C(=O)O)c1`
Response: lower segment

Prompt: Which class does `O=C1c2ccccc2C(=O)c2c(Cl)cccc21` fall in?
Response: lower segment

Prompt: Record `C=CCC` — which class?
Response: upper segment

Prompt: Bin? `CN(C)C`
Response: upper segment

====

assay: solvent given as SMILES
study conditions: in C=CCCCCCC
# solvation free energy, 298 K annotations
# output: bare number, implied unit kcal/mol

Here is how some molecules turned out for solvation free energy, 298 K.
>  <structure string>
CCCC(C)C

>  <result units>
kcal/mol

>  <solvation free energy, 298 K>
-3.73

$$$$
>  <structure string>
O=C=O

>  <result units>
kcal/mol

>  <solvation free energy, 298 K>
-0.45

$$$$
>  <structure string>
CC(C)CC(C)C

>  <result units>
kcal/mol

>  <solvation free energy, 298 K>
-4.16

$$$$

Turning now to a further molecule:
Prompt: So what's the measured solvation free energy, 298 K for this one? `C1CCCCC1`
Response: -4.18

====

assay: solvent given as SMILES
study conditions: in Ic1ccccc1
measure name: solvation free energy, 298 K
Quick note: unit goes after the number.

>  <structure string>
Cc1ccccc1

>  <solvation free energy, 298 K>
-5.03 kcal/mol

$$$$
>  <structure string>
CCC(C)C

>  <solvation free energy, 298 K>
-2.37 kcal/mol

$$$$
>  <structure string>
COC

>  <solvation free energy, 298 K>
-2.03 kcal/mol

$$$$

# ---- query compound ----
Prompt: Data request, read-out solvation free energy, 298 K, for `O=O`
Response: 1.3 kcal/mol

====

# solvation free energy, 298 K annotations
assay: solvent given as SMILES
study conditions: in CCCC(C)=O
Provide only the numeric value, understood in kcal/mol.

Worked examples follow.
>  <structure string>
CCCC(C)C

>  <solvation free energy, 298 K, kcal/mol>
-3.34

$$$$
>  <structure string>
CC(C)CC(C)C

>  <solvation free energy, 298 K, kcal/mol>
-3.74

$$$$
>  <structure string>
O=O

>  <solvation free energy, 298 K, kcal/mol>
0.81

$$$$

Prompt: I would be grateful if you could share the reported solvation free energy, 298 K for `C1CCCCC1` .
Response: -3.82

====

assay: solvent given as SMILES
study conditions: in CCOCC
measure name: solvation free energy, 298 K (kcal/mol)
Output spec: scalar in kcal/mol, unitless text.

>  <structure string>
O=C(O)c1ccc([N+](=O)[O-])cc1

>  <measure name>
solvation free energy, 298 K

>  <result units>
kcal/mol

>  <observed value>
-12.2

$$$$
>  <structure string>
CC(C)(C)Cl

>  <measure name>
solvation free energy, 298 K

>  <result units>
kcal/mol

>  <observed value>
-3.38

$$$$
>  <structure string>
c1ccc2c(c1)Cc1ccccc1O2

>  <measure name>
solvation free energy, 298 K

>  <result units>
kcal/mol

>  <observed value>
-10.5

$$$$

Prompt: Query: solvation free energy, 298 K; subject: `O=C(O)CCCCCC(=O)O`
Response: -12.8

Prompt: So what does the record say about solvation free energy, 298 K for `C1CCCCC1` ?
Response: -4.19

Prompt: What solvation free energy, 298 K value was documented for this molecule, `c1cc2c3c(cccc3c1)CC2` ?
Response: -9.37

Prompt: What value of measured solvation free energy, 298 K is listed for `Cc1ccccc1C(=O)O` ?
Response: -8.95

Prompt: So what does the record say about solvation free energy, 298 K for `CCCC(C)C` ?
Response: -3.78

Prompt: Please look up its solvation free energy, 298 K: `ClCCl`
Response: -3.87

Prompt: Name the recorded solvation free energy, 298 K for `O=C1c2ccccc2C(=O)c2c(Cl)cccc21` .
Response: -13.4

====

assay: solvent given as SMILES
study conditions: in COc1ccccc1
measure name: solvation free energy, 298 K (kcal/mol)
Write the answer as a number in kcal/mol, unit excluded.

As a guide, the following entries are already answered.
>  <structure string>
Cc1ccccc1

>  <solvation free energy, 298 K, kcal/mol>
-5.04

$$$$
>  <structure string>
C1CCCCC1

>  <solvation free energy, 298 K, kcal/mol>
-3.84

$$$$

Prompt: Param item = `CC(C)CC(C)C` ; retrieve measured solvation free energy, 298 K.
Response: -3.57

Prompt: Query: solvation free energy, 298 K; subject: `CCCC(C)C`
Response: -3.2

====

assay: solvent given as SMILES
study conditions: in CC(C)(C)O
Readings of solvation free energy, 298 K for the listed compounds
Please respond with the number in kcal/mol and leave the unit unwritten.

In the examples that follow, each entry is paired with its recorded solvation free energy, 298 K.
>  <structure string>
CCCCCCCCCCCCCCCCCCCCCCCCCC

>  <result units>
kcal/mol

>  <observed value>
-15.8

$$$$
>  <structure string>
ClC(Cl)(Cl)Cl

>  <result units>
kcal/mol

>  <observed value>
-3.74

$$$$

Prompt: For `c1ccc2c(c1)Nc1ccccc1S2` , what is its reported solvation free energy, 298 K?
Response: -12.7

Prompt: Give its solvation free energy, 298 K value. Item: `O=C(O)c1ccc([N+](=O)[O-])cc1`
Response: -12.4

Prompt: Which value of solvation free energy, 298 K has been reported for `CCCCCCCCCCCCCCCCCCCCC` in the records?
Response: -12.9

Prompt: // query solvation free energy, 298 K value for entry `C=CCC`
Response: -2.03

Prompt: What solvation free energy, 298 K value was documented for this compound, `C=C` ?
Response: -0.49

Prompt: solvation free energy, 298 K lookup needed for `O=O` , thanks.
Response: 0.78

Prompt: Form field: reported solvation free energy, 298 K of `ClCc1ccccc1`
Response: -6.07

Prompt: Requested field: solvation free energy, 298 K. Item: `CCc1ccc(CC)cc1`
Response: -6.3

====

Reported values of solvation free energy, 298 K for individual entries
assay: solvent given as SMILES
study conditions: in CC(C)=O
Report only the number, with the unit kcal/mol understood.

Example compounds with recorded solvation free energy, 298 K:
>  <structure string>
CC(=O)Oc1ccccc1C(=O)O

>  <solvation free energy, 298 K [kcal/mol]>
-14.1

$$$$
>  <structure string>
CC(C)(C)Cl

>  <solvation free energy, 298 K [kcal/mol]>
-3.46

$$$$
>  <structure string>
CN(C)C

>  <solvation free energy, 298 K [kcal/mol]>
-2.56

$$$$
>  <structure string>
CC(C)CC(C)C

>  <solvation free energy, 298 K [kcal/mol]>
-3.45

$$$$
>  <structure string>
FS(F)(F)(F)(F)F

>  <solvation free energy, 298 K [kcal/mol]>
-0.07

$$$$

Prompt: Query: solvation free energy, 298 K; subject: `C=C`
Response: -0.76

Prompt: Query (compound): `S=C=S` ; field requested: solvation free energy, 298 K
Response: -3.07

Prompt: Dear colleague, I am looking for the recorded solvation free energy, 298 K of the following compound: `O=S=O`
Response: -3.52

Prompt: What value of solvation free energy, 298 K has been reported for the following compound? `Clc1ccccc1`
Response: -5.65

Prompt: Bench note: what solvation free energy, 298 K did `CC(C)(C)C` show?
Response: -2.22

Prompt: Could you share which solvation free energy, 298 K value was measured for `OC1CCCC1` ?
Response: -6.28

Prompt: # input compound: `c1ccccc1` ; wanted: its solvation free energy, 298 K
Response: -4.42

Prompt: Can you share its solvation free energy, 298 K? I mean this compound: `Cc1ccccc1`
Response: -4.97

Prompt: For `CCCC(C)C` , what is its reported solvation free energy, 298 K?
Response: -3.08

Prompt: Any idea what its solvation free energy, 298 K is? The compound is `O=C=O`
Response: -1.1

Prompt: Need solvation free energy, 298 K, item `COC(C)=O`
Response: -4.12

Prompt: Which solvation free energy, 298 K is reported for this compound? `FC(Cl)(Cl)C(F)(Cl)Cl`
Response: -4.45

Prompt: Report solvation free energy, 298 K for `C1CCCCC1` please.
Response: -3.58

Prompt: Data request, read-out solvation free energy, 298 K, for `O=C(C(=O)c1ccccc1)c1ccccc1`
Response: -12.5

Prompt: Item `S` has what recorded solvation free energy, 298 K?
Response: -1.9

Prompt: # input compound: `O=O` ; wanted: its solvation free energy, 298 K
Response: 0.76

====

assay: solvent given as SMILES
study conditions: in CCCCO
measure name: solvation free energy, 298 K (kJ/mol)
Number in kJ/mol, nothing else.

Prompt: Quick one: solvation free energy, 298 K of `C1CCCCC1` ?
Response: -15.5

Prompt: If you can, please state the reported solvation free energy, 298 K value of CCC(C)(C)C(=O)OC1CC(C)C=C2C=CC(C)C(CCC3CC(O)CC(=O)O3)C21 (stereo not given) .
Response: -105

Prompt: Please give the measured solvation free energy, 298 K for this molecule: `O=C(Oc1ccccc1)c1ccccc1O`
Response: -52

Prompt: Could you share which solvation free energy, 298 K value was measured for `O=[N+]([O-])c1cc(Cl)ccc1Cl` ?
Response: -34.4

Prompt: Request the reported solvation free energy, 298 K associated with CC(C)Cc1ccc(C(C)C(=O)O)cc1 (stereo not given)
Response: -54.9

Prompt: Which solvation free energy, 298 K value is on record for `CN(C)C(=O)Nc1ccc(Cl)cc1` ?
Response: -55.6
